experiment: soluble on expression in E. coli; label from the status in PepcDB or PDB records
observation_type: soluble on expression in E. coli

entry_sequence	observation_type	reported_value
MDILVREVDVSEYVSIVVNRDSFNTIEYFICAPFSGQRLRGTARPGQTVVFRQQNLTNVVEKLGKNSFRCIVKADELPKSFQKSQEFVVARGRFQQFLKVAEGSRLSKLEPMSDTEMASNAIKDVREMAEQDLIGSRKTPFYEMFTRFAQQKVTSSDQEDTIENLHTRNNYEDIFDVLKSNLNKNEQLNDIDGRNNQKSDKMTEVDQTDKMHLTELEVKQKV	soluble on expression in E. coli	not soluble
MGSDKIHHHHHHLCRRLDGLNPNQQALCAENPFSIPFVARGVREAIRECENKFKFERWNCSSRDEVTETRHGKFQDILGKTLRSANKEAAFLNAIMAASIVHSITKGCNTGNLTECGCDSKPGMQRYQAESDPSMSRDQFSWGGCSDNVPHGIRYAKKFLDDWETAQFDKTKNVAHLVRRHNNFVGREAIAQNIRRQCRCHGVSGSCEFKTCWLQMQKFSQVSDLLKKRYDHFAVQVTRKATKRLRRKERTERKIPLRGNEMAYVHRSPSYCEKNLTAGILGTSGRECIHNSYSSESCDLLCCGRGYNTRLEIRQTQCECKFVWCCEVKCKTCTEEVAVHTCK	soluble on expression in E. coli	not soluble
MKKRAGIWAALLLAAVMLAGCGNPADQKDSKAKQKTEVFPVTIDDASNQDVTIKKEPKKIVSLMPSNTEITYALGLGDKVVGVTTNDTYPKEVKKVEKVGDMNVNVEKVISLKPDLVLAHESSMSASADAIKQLKDAGITVLTVNDAQSFSEVYKSIEMIGEAGGAEKKADQLVKSMKSDLKDIQEKAKTISKDEEKSVFIEVSPDPDIYTTGKDTFMNEMLNVIHAKNAAADQTGWVQMTDEAIVKLNPDAIVTTDGVKAKAVEKRDGWSEINAVKHHRVYDVDPDLVTRSGPRLIEGVEELAESIYPDTFKE	soluble on expression in E. coli	not soluble

###

test: soluble on expression in E. coli; label from the status in PepcDB or PDB records
observation_type: soluble on expression in E. coli

// worked examples, soluble on expression in E. coli included
entry_sequence	soluble on expression in E. coli
MGSDKIHHHHHHMNINSETKYCQTCGIPLDIDYTNLKADQNEEYCDYCLKNGVKLYDFSMDYLIYLWGLFPEEYYKEVGIRHTSSELREIMSRRLPEIKRWKQKINTAHIQYELVIRVQEYINCHLFDDLDSEKLSQIVCISKYHFRRLFKAVCGDSLGNYIQRLRLEYIAFKLISTNVSVSEILSQINYQNKHTLSRAFKNYFNCSIPEFRKRHSNACSEGKNPIQIEPSIERVPHTRIAYLKLERTHHVSHSFSVLWKQVLQFSESYGLLSKGCKYVSLTLDYPFITLEEQSRFMVGVTLPQSFKIPKGFGVYEVPAGEYAIFRFKGLYHELNRVYRYIYLDWLPANDYSLREPFTFETYINTPEKTPVSELITDIYIPVKKKEI	not soluble
MAQLFFRYGAMNSGKTIEILKVAHNYEEQDKSVIILTSGLDNRDGVGYVASRIGLKREATPVFDDTNIFEIVKQTNPDAACVLIDEAQFLKKHHVLELADIVDELKIPVMTFGLKNDFRNELFEGSKYLLLYADKIEEMKTICWFCRKKAIMNLRFHDGQPVYEGEQVQIGGNEAYYPVCRHHYFYPPKLTKLEHHHHHH	soluble
SSSESEKDKERLIQAAKLFFFHIRDLVSFINRFVELFNLTMKTQILPMNLNEESCIKDFFEQMIRNFKEMQLMVDGKHKQMQKEPLCSKVLTAMTSAVEKCATIAPHHTAEDMLRNIQTSGAALVLKTSHVLVNLETSLSLLMQFPIMGLRLSDLYREETKEQSDATSDATTSEKNKSPECPKATTEETLRKLQDVLSPENAHTPVEAAADELEQFVKSMEITLQVLQKSIKTMEGDIFVLTQVQGK	soluble
MDKKELVEKIALNTLVFETLGQPEKEREFTIQDLRRWGFDLILGKKNGVRTFFASQAGREVGDKWEEGGATYEIEEILLELPENKKLFAHIETSEGVAYIVAELREGKENLEILRTPAPTLLMAFFKKHRLHELANNLKSVGVITEFYKQRGRESLPLPYKKLPLVARDFLERAKKVEKMAGFGRVALAYFGKTREKDNRFRVSWLLPTIALFDIDISEKANTALEEFK	soluble

We next turn to a different sequence, shown below.
Ask: Item under review: VPQIDTRDCGPAVLASVAKHYGSNYSIAYLRELSKTNKQGTTALGIVEAAKKLGFETRSIKADMTLFDYNDLTYPFIVHVIKGKRLQHYYVVYGSQNNQLIIGDPDPSVKVTRMSKERFQSEWTGLAIFLAPQPN . Reported soluble on expression in E. coli?
Reply: not soluble

###

assay: soluble on expression in E. coli; label from the status in PepcDB or PDB records
observation_type: soluble on expression in E. coli

// worked examples, soluble on expression in E. coli included
entry_sequence	soluble on expression in E. coli
TSITPSSQDICRICHCEGDDESPLITPCHCTGSLHFVHQACLQQWIKSSDTRCCELCKYEFIMETKL	soluble
MTSPSSASPDGHGARLDAQSIRFERLLPGPIERVWAWLADADKRARWLAGGELPRQPGQTFELHFNHAALTAETAPARYAQYDRPIVARHTLLRCEPPRVLALTWGGGAGEAPSEVLFELSEAGEQVRLVLTHTRLADRAAMLDVAGGWHAHLAVLAGKLAGQAPPPFWTTLAQAEQDYEQRLLEHHHHHH	soluble
VAPLGLSVPSDVELPPTAKMHAIIERTASFVCRQGAQFEIMLKAKQARNSQFDFLRFDHYLNPYYKFIQKAMKEGRYTVLAENKSDEKKKSGVS	soluble
MKFFILSTTLLLIGVQCGYPVAQNSYPTPPPPSDSYVVPKQSYPTAPGAYATKHSFPQNSAPVTAPPLPPPPAPSGYSSDDASVTSNVAASPPAPPTDAQIVGSSSSSTNYGGSSPTYGGSLSSGGIVGGNSLNYGTYNSASAGTPAATGAGASSGYRRRAKAKARARARARTAPNRRLHQRRHLQPIRRFRFQKKAKQ	soluble
MSRNQIYITQEQFDFFCQTQRPYEGFVEGVGYAFVHRGFVNPHANRPTNPFRQTKGYVLPFKQQLIEVSPDLIANSLKCNKTTDTPQEAPERDSRYLGERFYTKDGRYVYIGTMSGGWVCYDRSGNRILEQLPEIIVYSSKEPGRSIIGTGKD	not soluble
MESFIDRITEETDENFRICRENIPNFETTISPLLNTMKNIKLLLDDAAFDQQKLENNCEETCMNCTKSQLNDFLGIKVEASTIVDVKSQLVPQSKESSALVETNEPNEQGLSSKPKENDIRIVPQITDEEFKTIPKYQLGRLTLEMMNEIVSKMDDFLMKKSKILGKTNKQLTRSDREVLDNWRELEMKARKRLPTTLFFIETDIRPMLQDRLRPSFAKAIPCLRHIRRIREERCGPLTFYYP	not soluble
MKHEIKHDPAFRALTPKWHHGYRFQYEPAQKAHVVLYPEGMIKLNDSASLIGGLIDGERTIAAIIAELQREFPNIPELGMDVDDFMKVAKEKYWIDLV	not soluble

We next turn to a different sequence, shown below.
Ask: Item under review: MGSDKIHHHHHHMKDGKLYVAFSGGKDSSLVAILAKMALGEERVELVTVDWSPYTYERSREIVRNFAEKHGLKHTFIPSNRMQEKVWKHGPSCNACTRDVKTVLVKRYAQGHLVASGANASDSWGKTGLKVFDGVYSPLCRVGKEEINEMLKFLGLEVKKIGESAGREGCKLKHLLKMLINPDYHGKAVSTANEILLRVLEEHGFKPELANVKIIGPLSRNIALVNVKPLPPEKVMNEIVEKLSAEETIDGVIVVDGPMKLVVLASPAIYRNEESRKWIKEGRLQPEFAFPIEIEWRESKNNKLRTFQVVDARKE . Reported soluble on expression in E. coli?
Reply: not soluble

###

test: soluble on expression in E. coli; label from the status in PepcDB or PDB records
observation_type: soluble on expression in E. coli

// worked examples, soluble on expression in E. coli included
entry_sequence	reported_value
MVVFNGLLKIKICEAVSLKPTAWSLRDAVGPRPQTFLLDPYIALNVDDSRIGQTATKQKTNSPAWHDEFVTDVCNGRKIELAVFHDAPIGYDDFVANCTIQFEELLQNGSRHFEDWIDLEPEGKVYVIIDLSGSSG	soluble
MELQQLPQHVRDAFHAPNTPPRQLGVAWDYGWRVGNVAFSQVIHPDRSAWSARVRDKLQPQGLRVVRPLKSTDGRYINAGWRANSFEEGTLARRVDETVVAALRLDTALADIDVPDSFSEPDSHDLFSLADHSAWAPEPMVALGVTSDAEAVFLNPAQLTAQRLLPKIVLLLRDIDAPIQVTHADMFATTIYSGNQMPVVTDLVGVARPYGYTAAVCIVDALLAGAVDEGIIDRFSHIQHRDQLLLRALVYRIAVHALHPESTSNTGTNLEWVSQTIMSRASVTL	soluble
HLQTKTAAKTGEGLSESAIHRTFQQLASGFDTIYGGFGQAPKFPMPHMLMYLLRYDHNTGQENALYNVTKTLDSMANGGIYDHIGYGFARYSTDDEWLVPHFEKMLYDNALLLTAYTEAYQVTQNSRYKEICEQIITFIQREMTHEDGSFFSALDADTEGEEGKYYVWSKEEILKTLGDDLGTLYCQVYDITEEGNFEGKNIPNLIHTKREQIKEDAGLTEKELSLKLEDARQQLLKTREERTYPHVDDKVLTSWNALMIAGLAKAAKVYQEPKYLSLAKDAITFIENKLIIDGRVMVRYRDGEVKNKGFIDDYAFLLWAYLDLYEASFDLSYLQKAKKLTDDMISLFWDEEHGGFYFTGHDAEALIVREKEV	not soluble
MSLERAKNSDLLRESLTTEELLLISNFAKKKGADSVFFKIIEKLDLKFRLSSFGLEVKNFLMKSKLTGDELTKLTPEILKNKTYENKKFRAYNIHIPSAKTFIGRANSYLDYISKIKDKLVGLGFQEFDGPLVETEFFNNDALFMPQFHPSRDIKDVYYISDPSMQESLPEPYFSNVKLAHETGYATGSRGWRYSFSEDLSKRLVLRTHGTVLSAKQLINAKNPSRYFGVIRCFRYDQVDATHGVDFYQTEGIVIEDGVSIKTLLGLLEIFAKELAGATEIKYVPAYFPFTEPSIEIHVKHPVLGWFELGGSGIFRPEVTKPLGIDLPVIAWGIGIDRMALMHLGLNDLRDLFTYDIGDVILRRGKIDAKVRNEGHHHHHH	not soluble

We next turn to a different sequence, shown below.
Ask: Item under review: MGSDKIHHHHHHMIMQLDCALYQHPKLITVFGGSGFVGRHVVEALTKRGYRVRIAVRSPQKAYYMLQIGEVGQTQMLRTDIKCRASVARALLGSDGAVFLPGSLAQANQPNFQKTQIEGAQNVSELTAEAGIPLIYMSALVANKNASFLYARVKSMSEEIIHNEHPQAIIMRPSIIFGPEDCFFNNLANLSCFLPIIPLFGGGQSKLQPVYVGDVAEFIVRALEGQVISGKSYDLGGPQIITFQNVLEYILKIIHRKKTILSMPLSAGLFIGGLLGTIGKLPLAPTLVTASQIRFLQIDNIVSQEAIENGYTLEGVGITPKAMAALLPSYLWRFRPHGQFSRNLPA . Reported soluble on expression in E. coli?
Reply: not soluble

Measured values drawn from the DeepSol protein solubility set for this set.
